# Tested on: mouse breast tumor cells (4T1 cells)
# TEST_METHOD_NOTES: Boyden chamber cell migration assay, 4T1
# Assay type: cell-based
# RUN_PARAMETERS: 4T1 tumor cells, 6-8 hours; read-out: IC50 value, chamber cell migration assay
MEASURED_ENDPOINT: pIC50
Remember the convention: pIC50 equals -log10 of concentration in molar.

What value of pIC50 has been reported for the following compound? COC1C=CCCCCC(=O)OC(C(C)C(=O)CCCC2CC(=O)N(C)C(=O)C2)C(C)=CC(C)C1O (stereo not drawn) [Compound 42, N-Methyl-2,3-Dihydromigrastatin]
5.15

Quick one: pIC50 of CO[C@H]1/C=C/CCCCC(=O)OC/C(C)=C\[C@@H](C)[C@@H]1O [Compound 48, Macrolactone] ?
7.62

Item under review: COC1C=CCCCCC(=O)OC(C(C)C(=O)CCCC2CC(=O)NC(=O)C2)C(C)=CC(C)C1O (stereo not drawn) [Compound 41, 2,3-Dihydromigrastatin] . Reported pIC50?
5.00

====

# System: HUVEC
# TEST_METHOD_NOTES: Tube formation assay
# Type: cell-based, human
# RUN_PARAMETERS: HUVEC on matrigel, 16-18 h, tested concentrations 200, 100, 50, 25, 10 μM
For each entry below, report its Minimum effect concentration value.
Supply the numeric figure in µM, leaving out any unit text.

Reported Minimum effect concentration, compound COC1C=CCCC=CC(=O)OC(C(C)C(=O)CCCC2CC(=O)N(C)C(=O)C2)C(C)=CC(C)C1O (stereo not shown) : ____
200

May I ask what Minimum effect concentration has been recorded for CO[C@H]1/C=C/CC/C=C/C(=O)OC/C(C)=C\[C@@H](C)[C@@H]1O ?
10

What value of Minimum effect concentration has been recorded for this entry: CO[C@H]1/C=C/CC/C=C/C(=O)OC([C@H](C)C(=O)CCCC2CC(=O)NC(=O)C2)/C(C)=C\[C@@H](C)[C@@H]1O (stereo partly shown)
100

Consider the compound COC1C=CCCCCC(=O)OC(C(C)C(=O)CCCC2CC(=O)NC(=O)C2)C(C)=CC(C)C1O (stereo not shown) [Compound 41, 2,3-Dihydromigrastatin] and give its measured Minimum effect concentration.
50
